Target: T1, AnkB_repeats site 3 mutant 'LFL' (Leu366, Phe399 and Leu432 to Gln) (human, UniProt Q01484 28-873, Leu366 substituted with Gln | Phe399 substituted with Gln | Leu432 substituted …)
T1 sequence: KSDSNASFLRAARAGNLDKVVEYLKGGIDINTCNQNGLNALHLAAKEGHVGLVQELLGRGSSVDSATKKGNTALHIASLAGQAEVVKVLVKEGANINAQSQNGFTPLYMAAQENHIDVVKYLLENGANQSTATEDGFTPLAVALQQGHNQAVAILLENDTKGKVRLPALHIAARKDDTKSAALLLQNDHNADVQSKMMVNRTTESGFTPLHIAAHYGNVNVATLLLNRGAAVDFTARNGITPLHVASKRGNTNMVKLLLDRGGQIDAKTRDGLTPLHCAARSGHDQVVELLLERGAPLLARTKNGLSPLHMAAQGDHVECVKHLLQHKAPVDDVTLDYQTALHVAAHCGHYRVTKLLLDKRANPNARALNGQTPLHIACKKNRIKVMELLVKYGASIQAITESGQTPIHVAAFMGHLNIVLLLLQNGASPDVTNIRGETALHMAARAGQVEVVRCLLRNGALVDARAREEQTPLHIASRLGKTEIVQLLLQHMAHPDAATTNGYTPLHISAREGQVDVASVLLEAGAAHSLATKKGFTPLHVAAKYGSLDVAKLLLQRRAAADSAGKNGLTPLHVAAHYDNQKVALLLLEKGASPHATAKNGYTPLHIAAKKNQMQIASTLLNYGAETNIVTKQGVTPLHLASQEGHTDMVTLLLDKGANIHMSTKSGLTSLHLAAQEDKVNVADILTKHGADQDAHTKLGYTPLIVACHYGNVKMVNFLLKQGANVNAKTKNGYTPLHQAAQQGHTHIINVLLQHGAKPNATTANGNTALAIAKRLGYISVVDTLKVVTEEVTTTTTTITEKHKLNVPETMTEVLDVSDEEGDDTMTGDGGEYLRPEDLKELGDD
Experiment: FP
Where no end group is shown, it is not given here.
measured.quantity: pKd
Convention used: pKd is expressed as -log10 of the molar concentration.

// ELQDFGPGYSDEEPDPGREEEDLADEMICITTL (peptide, UniProt Q99246-4 2134-2166, looked up, also: FITC label (position not given here), voltage-gated calcium channel Cav1.3, mouse, residues 2134-2166; also called voltage-gated calcium channel Cav1.3 peptide; source: synthetic peptide (commercially synthesized)) [Cav1.3 peptide (mouse Cav1.3 residues 2134–2166), FITC-labeled] : pKd value = 5.40
